Target: human orexin-2 receptor (Homo sapiens (Human))
Sequence (O43614 whole entry): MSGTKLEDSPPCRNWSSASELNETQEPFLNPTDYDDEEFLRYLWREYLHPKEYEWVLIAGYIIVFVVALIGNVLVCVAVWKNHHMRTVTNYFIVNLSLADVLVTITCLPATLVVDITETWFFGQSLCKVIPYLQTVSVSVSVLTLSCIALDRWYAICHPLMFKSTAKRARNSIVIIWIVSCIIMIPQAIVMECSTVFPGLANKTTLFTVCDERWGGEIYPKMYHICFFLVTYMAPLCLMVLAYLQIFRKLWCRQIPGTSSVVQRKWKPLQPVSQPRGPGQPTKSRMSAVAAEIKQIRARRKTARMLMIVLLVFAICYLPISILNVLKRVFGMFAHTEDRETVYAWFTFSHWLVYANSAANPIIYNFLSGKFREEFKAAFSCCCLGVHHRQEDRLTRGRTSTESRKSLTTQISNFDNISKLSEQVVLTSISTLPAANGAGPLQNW
Assay: In vitro assay: intracellular calcium measurements (FLIPR), antagonistic activity
Settings: CHO cells expressing human orexin-2 receptor, orexin-A agonist, geometric mean, read-out: IC50 Ox2
The following compounds are shown together with reported log10 IC50 values.
Heads up: the numbers are on a log10 scale; they represent IC50 in nM.

Examples with their reported log10 IC50 follow.
COMPOUND	ENDPOINT VALUE
Cc1ccc(-n2nccn2)c(C(=O)N2CC[C@H](C)[C@H]2c2nc3cc(C)ccc3[nH]2)c1 [Ex. 4.2]	2.83
COc1ccc(-c2ccc(OC(F)(F)F)cc2)c(C(=O)N2CCC[C@@]2(C)c2nc3c(C)c(Cl)ccc3[nH]2)c1F [Ex. 5.306]	1.84
Cc1ccc(-c2ccccc2C(=O)N2CCC[C@@]2(C)c2nc3c(C)c(C)ccc3[nH]2)cc1 [Ex. 5.120]	1.41
COc1cc(C(=O)N2CCC[C@@]2(C)c2nc3cc(F)c(Br)cc3[nH]2)c(-n2nccn2)cc1OC [Ex. 5.125]	2.10
COc1ccccc1-c1ccc(C)cc1C(=O)N1CCC[C@@]1(C)c1nc2cc(C(F)(F)F)c(Cl)cc2[nH]1 [Ex. 5.148]	2.20
COc1ccccc1-c1ccc(C)cc1C(=O)N1CCC[C@@]1(C)c1nc2cc(C)c(C)cc2[nH]1 [Ex. 5.92]	2.25

Determine its reported log10 IC50: Cc1nc(C(=O)N2CC[C@H](C)[C@H]2c2nc3c(Cl)cccc3[nH]2)c(-c2ccc(Cl)cc2)s1 [Ex. 4.120]
2.86

Output measured log10 IC50 for this item: COc1ccc(-n2nccn2)c(C(=O)N2CC[C@H](C)[C@H]2c2nc3c(C)cc(Cl)cc3[nH]2)c1 [Ex. 4.97]
2.11

Return log10 IC50 (reported value) for this compound: Cc1ccc(C(=O)N2CCC[C@@]2(C)c2nc3c(C)c(C)c(Br)cc3[nH]2)c(-n2nccn2)c1C [Ex. 5.267]
2.02
